The following compounds are shown together with reported Total amount of analogous substances (%) Initial value values.
- protocol_description: Solid state stability test (preservation stability, 70° C./75% RH, 2 weeks)
- Type: physicochemical
- experimental_conditions: before preservation; HPLC, UV 220 nm
- Description: The preservation stability of each of the type I crystal, type II crystal, and type III crystal of the free base of Compound (I), which were produced according to the methods described in Examples 1, 2 and 3 above, respectively, was tested under the following conditions. • Preservation conditions: 70° C./75% RH (open system and closed system) • Measuring point: 2 weeks • Preserved amount: about 50 mg • Preservation container: brown glass bottle […]
Structures can show the parent of a compound that is named as a salt.
Answer with a number only, understood to be in %.

// solved cases for Total amount of analogous substances (%) Initial value follow
{"columns": ["compound", "unit_symbol", "value_measured"],
 "data": [
  ["CC(C)(C)NCCNc1ccc(-c2nnc(C(F)(F)F)o2)nc1C1CCN(c2ncnc3c2C(C)(C)C(=O)N3)CC1 [Free body type II crystal]", "%", 0.5],
  ["CC(C)(C)NCCNc1ccc(-c2nnc(C(F)(F)F)o2)nc1C1CCN(c2ncnc3c2C(C)(C)C(=O)N3)CC1 [Crystal of maleate]", "%", 0.1],
  ["CC(C)(C)NCCNc1ccc(-c2nnc(C(F)(F)F)o2)nc1C1CCN(c2ncnc3c2C(C)(C)C(=O)N3)CC1 [Frcc body type III crystal]", "%", 0.5],
  ["CC(C)(C)NCCNc1ccc(-c2nnc(C(F)(F)F)o2)nc1C1CCN(c2ncnc3c2C(C)(C)C(=O)N3)CC1 [Crystal of ½ malate]", "%", 0.4],
  ["CC(C)(C)NCCNc1ccc(-c2nnc(C(F)(F)F)o2)nc1C1CCN(c2ncnc3c2C(C)(C)C(=O)N3)CC1 [Crystal of hydrochloride]", "%", 0.2],
  ["CC(C)(C)NCCNc1ccc(-c2nnc(C(F)(F)F)o2)nc1C1CCN(c2ncnc3c2C(C)(C)C(=O)N3)CC1 [Crystal of acetate]", "%", 0.3]
]}

Attention now shifts to the item below.
Consider the compound CC(C)(C)NCCNc1ccc(-c2nnc(C(F)(F)F)o2)nc1C1CCN(c2ncnc3c2C(C)(C)C(=O)N3)CC1 [Free body type I crystal] and give its measured Total amount of analogous substances (%) Initial value.
0.6
